# target system: Human immunodeficiency virus type 1 protease (Human immunodeficiency virus 1) (UniProt Q72874)
quantity name: log10(k off) (log10 of the value in s⁻¹)
Please be aware that the numbers have been log10-transformed from k off in s⁻¹.

Reported log10(k off), compound CC(C)[C@H](C)C(=O)NC(=O)[C@H](O)[C@@H](O)[C@H](O)[C@@H](Oc1ccccc1)C(=O)NC(=O)[C@@H](C)C(C)C : ____ -1.70

# repeat for CC(C)[C@H](C)C(=O)NC(=O)[C@H](O)[C@H](O)[C@@H](O)[C@@H](Oc1ccc(-c2nccs2)cc1)C(=O)NC(=O)[C@@H](C)C(C)C -3.52

Do the same for CC(C)[C@H](C)C(=O)NC(=O)[C@H](O)[C@H](O)[C@@H](O)[C@@H](Oc1ccc(C2=C(O)C(=O)CCC2)cc1)C(=O)NC(=O)[C@@H](C)C(C)C please -3.31

Consider next the compound COC(=O)/C=C/c1ccc(O[C@@H](C(=O)NC(=O)[C@@H](C)C(C)C)[C@H](O)[C@@H](O)[C@@H](O)C(=O)NC(=O)[C@@H](C)C(C)C)cc1 in the same way. -3.44

Subsequent entry: CCO[C@@H](C(=O)NC(=O)[C@@H](C)C(C)C)[C@H](O)[C@@H](O)[C@@H](O)C(=O)NC(=O)[C@@H](C)C(C)C -2.31

Another: C[C@@H](Cc1ccc(O)cc1)C(=O)NC(=O)[C@H](O)[C@H](O)[C@@H](O)[C@@H](Oc1ccccc1)C(=O)NC(=O)[C@@H](C)Cc1ccc(O)cc1 -1.22

What about this compound? CC(C)[C@H](C)C(=O)NC(=O)[C@H]([O-])[C@H](O)[C@@H](O)[C@@H](Oc1ccc(C2=CC=[S+]C2)cc1)C(=O)NC(=O)[C@@H](C)C(C)C -3.36

// repeat for O=S1(=O)N(Cc2ccc(CO)cc2)[C@H](COc2ccccc2)[C@H](O)[C@@H](O)[C@@H](COc2ccccc2)N1Cc1ccc(CO)cc1 and report -1.56

Now consider O=C(NC1c2ccccc2C[C@H]1O)[C@H](O)C[C@@H](O)[C@@H](Oc1ccccc1)C(=O)NC1c2ccccc2C[C@@H]1O (stereo partly specified) . -1.70

Record: CC(C)[C@H](C)C(=O)NC(=O)[C@H](O)[C@H](O)[C@@H](O)[C@@H](Oc1ccccc1)C(=O)NC(=O)[C@@H](C)C(C)C -2.44

Same again, this time with O=C(NC1c2ccccc2C[C@@H]1O)[C@H](O)[C@H](O)[C@@H](O)[C@@H](Oc1ccccc1)C(=O)NC1c2ccccc2C[C@@H]1O (stereo partly specified) -2.00

Another compound: CC(C)[C@H](C)C(=O)NC(=O)[C@H](O)[C@H](O)[C@@H](O)[C@@H](Oc1ccccc1)C(=O)NC1c2ccccc2C[C@@H]1O (stereo partly specified) -1.70

Likewise for CC(C)[C@H](C)C(=O)NC(=O)[C@H](O)[C@H](O)[C@@H](O)[C@@H](Oc1ccc(Br)cc1)C(=O)NC(=O)[C@@H](C)C(C)C ? -2.77

Try CC(C)[C@H](C)C(=O)NC(=O)[C@H](O)[C@H](O)[C@@H](O)[C@@H](Oc1ccc(-c2ccccn2)cc1)C(=O)NC(=O)[C@@H](C)C(C)C next. -3.43

Please answer likewise for CC(C)[C@H](C)C(=O)NC(=O)[C@H](O)[C@H](O)[C@@H](O)[C@@H](Oc1ccc(-c2cccc([N+](=O)[O-])c2)cc1)C(=O)NC(=O)[C@@H](C)C(C)C -3.09

And what about the compound Cc1cc(NS(=O)(=O)c2ccc(N)cc2)no1 ? -1.22

Another compound: CC(C)CN(C[C@@H](O)[C@H](Cc1ccccc1)NC(=O)O[C@H]1CCOC1)S(=O)(=O)c1ccc(N)cc1 -2.31

// same read-out, input: Cc1cccc(C)c1OCC(=O)N[C@@H](Cc1ccccc1)[C@@H](O)C[C@H](Cc1ccccc1)NC(=O)[C@H](C(C)C)N1CCCNC1=O -3.18

Moving on to the next compound: COC(=O)N[C@H](C(=O)N[C@@H](Cc1ccccc1)[C@@H](O)CN(Cc1ccc(-c2ccccn2)cc1)NC(=O)[C@@H](NC(=O)OC)C(C)(C)C)C(C)(C)C -3.16

Follow-up item: CC(C)[C@H](C)C(=O)NC(=O)[C@H](O)[C@H](O)[C@@H](O)[C@@H](Oc1ccc(CCc2ccccc2)cc1)C(=O)NC(=O)[C@@H](C)C(C)C -2.79

Please answer likewise for CC(NO)c1cccc(CN2[C@H](COc3ccccc3)[C@H](O)[C@@H](O)[C@@H](COc3ccccc3)N(Cc3cccc(C(C)NO)c3)S2(=O)=O)c1 (stereo partly specified) -1.40

The reported numbers originate from ChEMBL document CHEMBL1138847.
